B1: Azoarcus group I ribozyme (parent)
chain: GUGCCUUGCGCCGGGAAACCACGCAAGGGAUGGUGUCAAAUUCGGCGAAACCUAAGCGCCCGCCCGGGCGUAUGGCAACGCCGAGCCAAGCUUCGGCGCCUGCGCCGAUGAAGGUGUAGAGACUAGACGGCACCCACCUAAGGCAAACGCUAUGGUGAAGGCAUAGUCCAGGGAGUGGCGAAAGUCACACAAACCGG

variants of: B1; experiment: reverse-splicing fitness (ratio to wild type); higher = more active; in vitro selection; Mg2+ level not given
Entries are grouped by reverse-splicing fitness into these classes: low bin: < 0.005; mid bin: ≥ 0.005 and < 0.01; high bin: ≥ 0.01

Recorded results for 10 variants are shown here.
C82A A111C A120U C150A C169U U176C    low bin
C82G A111U A120U A145U C150G C169U U176C    low bin
C82U A111G A120G A145U U176A    high bin
C82U A111G A120U C150A C169A    low bin
C82G A111U A120G A145G C150A    mid bin
A111G A120C A145U C150U C169A U176A    high bin
C82U A111G A120U C150G C169G U176G    low bin
C82G A111G A120U A145G C169G    mid bin
A120U A145G C150U    high bin
C82U A111U A120U C150A C169A    low bin

query: Please report the category associated with C82A A111U A120G C150U C169A U176A , nothing else.
result: high bin
